# Test system: Trypanosoma cruzi
# TEST_NAME: 90% inhibitory concentration against the growth of Trypanosoma cruzi (Epimastigotes)
# Format: functional
PROPERTY_NAME: IC90 (µM)

Example entries and their recorded answers appear below.
Exercise: Value lookup for IC90; key = `N#CSCCOc1ccc(Cl)cc1Cl`
Solution: 30

Exercise: # input compound: `N#CSCCOc1cccc(Br)c1` ; wanted: its IC90
Solution: 27

Exercise: Look at this compound and give its reported IC90. `N#CSCCOc1ccc(Oc2ccccc2)cc1`
Solution: 3.5

(a) N#CSCCSc1ccc(Oc2ccccc2)cc1
(b) N#CSCCOc1ccc(Oc2ccccc2)cc1Br
(c) Cc1ccccc1Oc1ccc(OCCSC#N)cc1
Exercise: Rank the items in ascending order with respect to IC90. The labels, placed in the requested order, form the answer.
Solution: c, b, a
